Hey, just so you know, these numbers are from patent US8846623B2.

# Target Or System: full-length recombinant GRP78 (Homo sapiens)
# Sequence (P11021 19-654): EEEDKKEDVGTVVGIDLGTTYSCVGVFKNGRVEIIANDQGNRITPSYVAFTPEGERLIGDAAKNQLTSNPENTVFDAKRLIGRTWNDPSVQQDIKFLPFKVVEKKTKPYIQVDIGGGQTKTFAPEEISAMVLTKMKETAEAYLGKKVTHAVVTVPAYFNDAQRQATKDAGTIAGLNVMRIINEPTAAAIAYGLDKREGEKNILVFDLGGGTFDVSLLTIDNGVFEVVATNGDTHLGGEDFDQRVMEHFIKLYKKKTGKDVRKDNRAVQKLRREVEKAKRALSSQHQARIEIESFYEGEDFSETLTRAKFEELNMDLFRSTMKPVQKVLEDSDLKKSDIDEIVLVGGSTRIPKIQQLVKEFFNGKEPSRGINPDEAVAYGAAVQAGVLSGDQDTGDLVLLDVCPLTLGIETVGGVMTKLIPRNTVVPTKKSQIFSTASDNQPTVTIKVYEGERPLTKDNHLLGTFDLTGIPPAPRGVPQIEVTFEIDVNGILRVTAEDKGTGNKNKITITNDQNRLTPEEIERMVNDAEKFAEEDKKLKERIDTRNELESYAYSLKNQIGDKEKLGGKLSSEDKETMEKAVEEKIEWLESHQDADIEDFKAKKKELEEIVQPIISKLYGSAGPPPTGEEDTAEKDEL
# Protocol Description: Biacore binding assay of peptides
# Measurement Context: peptide at 50 μM; difference of RUs divided by molecular weight, normalized to the L-peptide
Square brackets hold non-standard residues; d marks the D form. Ends that are not written are not given here.
Measured Attribute: Binding index

Substance	Measured Value
RLLDTNRPFLKY [P-10]	<0.2
RLLDTNRPNLPY [PA-4]	0.31
RLLDTNRPRLEY [P-17]	<0.2
RLLDTNRPYLKY [P-1]	<0.2
RLLDTNRPMLMY [P-5]	<0.2
RLLDTNRPDLPY [PA-3]	<0.2
RLLDTNRPQLPY [PA-5]	0.3
RLLDTNRPQLVY [P-3]	<0.2
RLLDTNRPKLFY [P-4]	<0.2
RLLDTNRPSLFY [P-7]	<0.2
RLLDTNRPPLCY [P-9]	<0.2
RLLDTNRPYLWY [PB-2]	3
RLLDTNRPHLKY [P-15]	<0.2
RLLDTNRPFLWY [PB-1]	1.6
RLLDTNRPKLRY [P-16]	<0.2
RLLDTNRPLLLY [P-14]	0.21
RLLDTNRPELPY [PA-2]	<0.2
RLLDTNRPHLPY [PA-6]	0.47
RLLDTNRPL(d-L)PY (RLLDTNRPL[dL]PY) [CdL, negative control peptide, reference compound]	<0.2
RLLDTNRPKLVY [P-2]	<0.2
RLLDTNRPLLPY(CONH2) (RLLDTNRPLLPY-NH2) [PB-3, L-peptide modified with the amidation (CONH2)]	1.15
RLLDTNRPWLPY [PA-1]	0.35
RLLDTNRPFLPY [P-6]	1.1~1.52
RLLDTNRPFLFY [P-13]	1.4~3.5
RLLDTNRPHLWY [P-12]	1.2~3.5
RLLDTNRPMLKY [P-8]	<0.2
RLLDTNRPLLGY [P-11]	0.77
